biological target: human recombinant adrenergic α2B receptor (Homo sapiens); construct: expressed in transfected cells; host or cells: CHO-K1; experiment: Radioligand binding, adrenergic α2B ([3H]Rauwolscine); conditions: compound at 0.03 μM, repeat datapoints each shown, 0.03 µM
READOUT: Percentage inhibition of ligand binding, Adrenergic α2B (0.03 μM) (%)

// below: answered molecules
{"columns": ["MOLECULE", "TEST RESULT"],
 "data": [
  ["CN1CCc2c(c3cccc(Cl)c3n2CC(O)c2ccncc2)C1 (single isomer, unassigned) [45a]", 54],
  ["Cc1ccc2c(c1)c1c(n2CC(C)(O)c2ccc[n+]([O-])c2)CCN(C)C1 (single isomer, unassigned) [56b]", 28],
  ["Cc1ccc2c(c1)c1c(n2CC(O)c2ccncc2)CCN2CCCCC12 (single isomer, unassigned) [47d]", 30]
]}

P: Cc1ccc2c(c1)c1c(n2CC(C)(O)c2ccc[n+]([O-])c2)CCN(C)C1 (single isomer, unassigned) [56a]
Q: Cc1ccc2c(c1)c1c(n2CC(O)c2ccncc2)CCN2CCCCC12 (single isomer, unassigned) [47a]
R: Cc1ccc2c(c1)c1c(n2CC(O)c2cc[n+]([O-])cc2)CCN(C)C1 (single isomer, unassigned) [69a]
Task: Ordering criterion: Percentage inhibition of ligand binding, Adrenergic α2B (0.03 μM); begin with the maximum. Give the order by naming the labels one after another as requested.
Result: Q, P, R

P: Cc1ccc2c(c1)c1c(n2CC(O)c2ccncc2)CCN2CCCCC12 (single isomer, unassigned) [47b]
Q: Cc1ccc2c(c1)c1c(n2CC(O)c2ccncc2)C(C)N2CCC1C2 (single isomer, unassigned) [38b]
R: Cc1ccc2c(c1)c1c(n2CC(O)c2cccnc2)CCN(CCO)C1 (single isomer, unassigned) [21a]
S: Cc1ccc2c(c1)c1c(n2CC(O)c2ccncc2)CC2CCCCN2C1 (racemic) [75c]
Task: Ordering criterion: Percentage inhibition of ligand binding, Adrenergic α2B (0.03 μM); begin with the maximum. Give the order by naming the labels one after another as requested.
Result: P, Q, S, R
(P: 119%, Q: 17%, S: 11%, R: −2%)

###

target: rat adrenergic α1B receptor (Rattus norvegicus, UniProt P15823); construct: rat adrenergic α1B receptor obtained from Wistar Rat liver; from tissue; host or cells: Wistar rat liver; assay: Radioligand binding, adrenergic α1B ([3H]Prazosin); parameters: species or system Wistar Rat; settings: compound at 0.1 μM, repeat datapoints each shown, 0.1 µM
READOUT: Percentage inhibition of ligand binding, Adrenergic α1B (0.1 μM) (%)

{"columns": ["MOLECULE", "TEST RESULT"],
 "data": [
  ["Cc1ccc2c(c1)c1c(n2CC(C)(O)c2cccnc2)C(O)CN(C)C1 (single isomer, unassigned) [II-151a]", 11],
  ["Cc1cnc2c(c1)c1c(n2CC(C)(O)c2cccnc2)CCN2CCCC12 (single isomer, unassigned) [26c]", 1],
  ["Cc1ccc2c(c1)c1c(n2CC(C)(O)c2cccnc2)CN(C)CC1 (stereo not shown) [14b]", 25]
]}

I: CN1CCc2c(n(CC(C)(O)c3cccnc3)c3ccc(Cl)cc23)C1 (single isomer, unassigned) [28b]
II: CN1CCc2c(n(CC(O)c3ccncc3)c3ccc(Cl)cc23)C1 (single isomer, unassigned) [41b]
III: OC(Cn1c2c(c3cccnc31)CN1CCCC1C2)c1ccncc1 (single isomer, unassigned) [37d]
IV: Cc1ccc2c(c1)c1c(n2CC(O)c2cccnc2)CCN(CCO)C1 (single isomer, unassigned) [21a]
Task: Task for the reader: rank each entry by its Percentage inhibition of ligand binding, Adrenergic α1B (0.1 μM), from the minimum upward. Give the order by naming the labels one after another as requested.
Result: III, IV, I, II
(III: 2%, IV: 5%, I: 20%, II: 50%)

###

target: human recombinant adrenergic α2B receptor (Homo sapiens, UniProt P18089); construct: expressed in transfected cells; host or cells: CHO-K1; test: Radioligand binding, adrenergic α2B ([3H]Rauwolscine); conditions: 0.03 μM compound, 0.03 µM
Sequence (P18089 whole entry): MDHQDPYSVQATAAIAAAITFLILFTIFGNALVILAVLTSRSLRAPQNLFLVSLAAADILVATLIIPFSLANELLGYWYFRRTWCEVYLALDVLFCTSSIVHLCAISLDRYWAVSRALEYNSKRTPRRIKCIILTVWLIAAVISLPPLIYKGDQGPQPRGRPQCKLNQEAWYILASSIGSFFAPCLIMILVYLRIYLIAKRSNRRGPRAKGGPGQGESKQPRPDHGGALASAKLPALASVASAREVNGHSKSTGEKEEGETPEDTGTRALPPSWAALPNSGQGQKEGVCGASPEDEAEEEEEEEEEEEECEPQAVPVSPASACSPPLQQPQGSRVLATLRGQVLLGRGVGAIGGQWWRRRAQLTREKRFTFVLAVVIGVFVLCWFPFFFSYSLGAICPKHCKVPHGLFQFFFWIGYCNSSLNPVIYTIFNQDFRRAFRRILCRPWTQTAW
READOUT: Percentage inhibition of ligand binding, Adrenergic α2B (%)

// below: answered molecules
{"columns": ["MOLECULE", "TEST RESULT"],
 "data": [
  ["Cc1ccc2c(c1)c1c(n2CC(O)c2ccncc2C)CCN(C)C1 (stereo not shown) [133a]", 52],
  ["Cc1ccc(CCn2c3c(c4cc(Cl)cnc42)C2CCCN2CC3)cn1 (single isomer, unassigned) [137a]", 104]
]}

a: Cc1ccc2c(c1)c1c(n2CC(C)(OC(=O)C(C)C)c2cccnc2)CCN(C)C1 (single isomer, unassigned) [146b]
b: Cc1cnc2c(c1)c1c(n2CC(N)c2ccc(C#N)cc2)CCN(C)C1 (single isomer, unassigned) [159a]
Task: Sorting by Percentage inhibition of ligand binding, Adrenergic α2B in descending order, would a or b appear first? Identify your selection by its label.
Result: a

a: Cc1ccc2c(c1)c1c(n2CC(O)c2ccncc2Cl)CCN(C)C1 (single isomer, unassigned) [135b]
b: Cc1cnc2c(c1)c1c(n2CC(N)c2ccc(C#N)cc2)CCNC1 (single isomer, unassigned) [160b]
Task: Sorting by Percentage inhibition of ligand binding, Adrenergic α2B in descending order, would a or b appear first? Identify your selection by its label.
Result: a
(a: 68%, b: 41%)

###

Biological target: rat adrenergic α1B receptor (Rattus norvegicus)
Construct: rat adrenergic α1B receptor obtained from Wistar Rat liver; from tissue; host or cells: Wistar rat liver
Sequence (P15823 1-515): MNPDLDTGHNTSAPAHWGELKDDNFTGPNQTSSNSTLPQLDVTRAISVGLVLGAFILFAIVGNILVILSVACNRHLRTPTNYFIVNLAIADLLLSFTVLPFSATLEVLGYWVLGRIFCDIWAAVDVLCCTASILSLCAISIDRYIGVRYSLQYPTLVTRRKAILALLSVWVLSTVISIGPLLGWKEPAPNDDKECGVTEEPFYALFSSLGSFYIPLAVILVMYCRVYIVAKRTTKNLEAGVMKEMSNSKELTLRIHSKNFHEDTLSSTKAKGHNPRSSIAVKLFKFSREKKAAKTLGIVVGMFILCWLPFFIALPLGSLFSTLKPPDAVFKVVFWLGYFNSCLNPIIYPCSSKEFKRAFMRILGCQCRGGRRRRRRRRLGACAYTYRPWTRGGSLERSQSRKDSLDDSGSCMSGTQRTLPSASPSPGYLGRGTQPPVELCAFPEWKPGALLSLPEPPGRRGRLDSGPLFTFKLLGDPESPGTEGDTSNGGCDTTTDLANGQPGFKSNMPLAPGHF
Experiment: Radioligand binding, adrenergic α1B ([3H]Prazosin)
Design: species or system Wistar Rat
Settings: compound at 0.03 μM, repeat datapoints each shown
READOUT: Percentage inhibition of ligand binding, Adrenergic α1B (0.03 μM) (%)

{"columns": ["COMPOUND", "TARGET SYSTEM", "TEST RESULT"],
 "data": [
  ["Cc1ccc2c(c1)c1c(n2CC(C)(O)c2ccc(C)nc2)CCN(C)C1 (single isomer, unassigned) [29a]", "rat adrenergic α1B receptor (Rattus norvegicus)", 19]
]}

I: CN1CCc2c(c3cc(Cl)ccc3n2CC(C)(O)c2cccnc2)C1 (single isomer, unassigned) [31a]
II: CC(O)(Cn1c2c(c3cc(Cl)cnc31)C1CCCN1CC2)c1cccnc1 (single isomer, unassigned) [IV-210a]
III: CN1CCc2c(c3cc(Cl)ccc3n2CC(O)c2ccncc2)C1 (single isomer, unassigned) [4a]
Task: Ordering criterion: Percentage inhibition of ligand binding, Adrenergic α1B (0.03 μM); begin with the maximum. Give the order by naming the labels one after another as requested.
Result: II, III, I

###

biological target: human recombinant adrenergic α2B receptor (Homo sapiens, UniProt P18089); construct: expressed in transfected cells; host or cells: CHO-K1; assay: Radioligand binding, adrenergic α2B ([3H]Rauwolscine); conditions: 0.03 μM compound
READOUT: Percentage inhibition of ligand binding, Adrenergic α2B (%)

// below: answered compounds
{"columns": ["COMPOUND", "TEST RESULT"],
 "data": [
  ["Cc1ccc2c(c1)c1c(n2C(C)C(O)c2ccncc2)CCN(C)C1 (single isomer, unassigned) [127a]", 43],
  ["Cc1ccc2c(c1)c1c(n2CC(N)c2ccncc2)CC2CCC1N2C (single isomer, unassigned) [155b]", 5]
]}

I: Cc1ccc2c(c1)c1c(n2CC(O)c2ccc(C#N)cc2)CCN(C)C1 (stereo not shown) [142a]
II: CN1CCc2c(c3cc(Cl)ccc3n2CC(C)(O)c2ccc(C(F)(F)F)nc2)C1 (single isomer, unassigned) [143b]
Task: // returns I or II , whichever has the lower Percentage inhibition of ligand binding, Adrenergic α2B Identify your selection by its label.
Result: II

###

Target: human recombinant adrenergic α2A receptor (Homo sapiens, UniProt P08913)
Construct: expressed in transfected cells; host or cells: insect Sf9 cells
Sequence (P08913 whole entry): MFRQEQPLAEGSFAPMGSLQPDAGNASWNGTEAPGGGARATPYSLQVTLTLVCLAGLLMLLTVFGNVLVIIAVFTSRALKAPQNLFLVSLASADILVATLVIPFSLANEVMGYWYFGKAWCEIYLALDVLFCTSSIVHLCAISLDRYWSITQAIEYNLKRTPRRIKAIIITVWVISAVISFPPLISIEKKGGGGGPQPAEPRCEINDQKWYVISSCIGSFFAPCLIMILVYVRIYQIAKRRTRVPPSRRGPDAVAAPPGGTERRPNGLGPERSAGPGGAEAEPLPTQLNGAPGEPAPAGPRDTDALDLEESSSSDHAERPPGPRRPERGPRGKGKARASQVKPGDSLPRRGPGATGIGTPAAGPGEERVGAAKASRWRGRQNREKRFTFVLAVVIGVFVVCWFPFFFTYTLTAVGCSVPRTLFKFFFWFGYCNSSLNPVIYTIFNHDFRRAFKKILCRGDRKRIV
Experiment: Radioligand binding, adrenergic α2A ([3H]MK-912)
Conditions: compound at 0.1 μM; [3H]MK-912; repeat datapoints each shown; 0.1 µM
Procedure: To evaluate in radioligand binding assays the activity of compounds of the invention, human recombinant adrenergic α2A receptor expressed in insect Sf9 cells (Uhlen, S. et al, J. Pharmacol. Exp. Ther. 271:1558, 1994) in a modified Tris-HCl buffer (50 mM Tris-HCl, pH 7.4, 12.5 mM MgCl2, 2 mM EDTA) was used. […] Receptor proteins were filtered and washed, the filters were then counted to determine [^3H]MK-912 specifically bound. […]
READOUT: Percentage inhibition of ligand binding, Adrenergic α2A (0.1 μM) (%)

{"columns": ["COMPOUND", "TEST RESULT"],
 "data": [
  ["Cc1ccc2c(c1)c1c(n2CC(O)c2cccnc2)CCN(CCO)C1 (single isomer, unassigned) [21a]", "−1"],
  ["OC(Cn1c2c(c3cccnc31)CN1CCCC1C2)c1ccncc1 (single isomer, unassigned) [37c]", 6],
  ["Cc1ccc2c(c1)c1c(n2CC(O)c2cc[n+]([O-])cc2)CCN(C)C1 (single isomer, unassigned) [69b]", 7],
  ["CN1CCc2c(n(CC(C)(O)c3cccnc3)c3ccc(Cl)cc23)C1 (single isomer, unassigned) [28a]", 28],
  ["Cc1ccc2c(c1)c1c(n2CC(C)(O)c2ccc[n+]([O-])c2)CCN(C)C1 (single isomer, unassigned) [56b]", 17]
]}

1: Cc1ccc2c(c1)c1c(n2CC(O)c2ccccn2)CN(C)CC1 (single isomer, unassigned) [22b]
2: Cc1ccc2c(c1)c1c(n2CC(O)c2ccncc2)CC2CCCN2C1 (single isomer, unassigned) [76d]
3: CN1CCc2c(n(CC(O)c3ccncc3)c3ccc(Cl)cc23)C1 (single isomer, unassigned) [41a]
4: Cc1ccc2c(c1)c1c(n2CC(O)c2ccncc2)CCN2CCCCC12 (single isomer, unassigned) [47a]
5: CN1CCc2c(c3cccc(Cl)c3n2CC(O)c2ccncc2)C1 (single isomer, unassigned) [45a]
Task: Ordering criterion: Percentage inhibition of ligand binding, Adrenergic α2A (0.1 μM); begin with the maximum. Give the order by naming the labels one after another as requested.
Result: 2, 4, 1, 5, 3
(2: 40%, 4: 10%, 1: 0%, 5: −4%, 3: −9%)

P: CCC1c2c(c3cc(C)ccc3n2CC(O)c2ccncc2)C2CCN1C2 (single isomer, unassigned) [36b]
Q: CCC(O)(Cn1c2c(c3cc(C)ccc31)CN(C)CC2)c1ccc(F)cc1 (single isomer, unassigned) [34b]
R: Cc1ccc2c(c1)c1c(n2CC(O)c2ccncc2)C(C)N2CCC1C2 (single isomer, unassigned) [38a]
S: CN1CCc2c(c3cc(Cl)ccc3n2CC(O)c2cccnc2)C1 (single isomer, unassigned) [7b]
Task: Task for the reader: rank each entry by its Percentage inhibition of ligand binding, Adrenergic α2A (0.1 μM), from the minimum upward. Give the order by naming the labels one after another as requested.
Result: P, Q, R, S
